Test system: PPARg homodimer (NR concentration 180 nM)
EXPERIMENTAL_PROTOCOL: PBM binding z-score (relative to random genomic background probes); higher = stronger binding; sequences stand for … in GC…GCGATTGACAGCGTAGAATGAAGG
Assign fulfilled whenever PBM binding z-score does not fall below 1; assign not fulfilled whenever it does.

| CHAIN_SEQUENCE | CATEGORY |
| --- | --- |
| ACAGACAGGTGAGTGAAGGTATCTCAGCTGGACG | not fulfilled |
| TAATATAGGTAAAGGTGAAAGTCGAACGATATGA | fulfilled |
| TCTAATTGGTCACGGAGGTCACACACGACGGGTA | fulfilled |
| CCAGACAGGTGAAAGATAACTCAGTCTGGTACGC | not fulfilled |
| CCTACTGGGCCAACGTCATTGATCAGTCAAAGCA | not fulfilled |
| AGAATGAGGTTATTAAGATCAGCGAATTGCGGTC | not fulfilled |
| ATCGAAAGGTAGACGAGGTGAGTATACACCGTTT | not fulfilled |
| CCTACTGGGCCATCAGGTCATTGAGATCAACGTT | fulfilled |
| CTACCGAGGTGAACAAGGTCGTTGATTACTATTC | not fulfilled |
| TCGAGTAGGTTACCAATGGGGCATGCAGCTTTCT | not fulfilled |
| GCTGCTAGGTCAGGTTGGTCAGCTCACGGGTACG | not fulfilled |
| GGTTGTAGATCAAGGTTAAGAAAGACTAAGCTAA | fulfilled |
| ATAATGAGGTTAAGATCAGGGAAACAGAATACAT | fulfilled |
| CCTACTGGGCCAAGGTCAATGATCAGTCAAAGCA | fulfilled |
| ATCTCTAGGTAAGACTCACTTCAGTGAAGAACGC | not fulfilled |
| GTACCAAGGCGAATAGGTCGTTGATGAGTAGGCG | not fulfilled |
| TCTGGCAGGCCAGAGGGTCACTCAAGAGGTACGG | not fulfilled |

###

Test system: VDR homodimer (NR concentration 270 nM)
EXPERIMENTAL_PROTOCOL: PBM binding z-score (relative to random genomic background probes); higher = stronger binding; sequences stand for … in GC…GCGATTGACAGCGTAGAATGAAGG

| CHAIN_SEQUENCE | PBM binding z-score |
| --- | --- |
| TTACCAAGTTGAAAGGTCGTTGATGCACGCCTTG | 1.58 |
| ATCTCTATGTAAAGTTCAGTGAAAGATCGATAGA | 2.03 |
| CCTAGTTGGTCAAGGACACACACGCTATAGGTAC | 1.33 |
| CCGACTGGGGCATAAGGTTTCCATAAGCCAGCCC | -0.137 |
| AGTCAAAGTTCTGGACGAGGTAACGTAAAGCACG | -0.322 |
| ACACACAGGTGATGAAGGTAACTCAGGCTATCAT | 0.17 |
| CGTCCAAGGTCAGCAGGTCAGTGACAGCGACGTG | 2.08 |
| CCTCGGAGGACAACAGGAGGTCAGGGCTGCCAGA | 0.949 |
| ACTCGGAGGACAAAGGCCAGAGCTACGCCAGTGA | -0.537 |

###

System: PPARg homodimer (NR concentration 180 nM)
EXPERIMENTAL_PROTOCOL: PBM binding z-score (relative to random genomic background probes); higher = stronger binding; sequences stand for … in GC…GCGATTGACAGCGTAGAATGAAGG
Entries annotated with measured PBM binding z-score

| CHAIN_SEQUENCE | PBM binding z-score |
| --- | --- |
| CCTCCTGGGCCATTCAGAGGTCATTGATCATATG | 2.13 |
| CCTACTGGGCCATTCCGAGGTCATTGATCATATG | 1.24 |
| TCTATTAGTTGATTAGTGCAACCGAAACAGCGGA | 0.86 |
| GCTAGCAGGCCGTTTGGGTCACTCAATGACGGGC | -0.598 |
| TCATAAAGGTAAAAGGTGAAAGTCGGTGTGGTAA | 2.26 |
